The values you see were collected from patent US9315498B2.

// reported Emax per item
target: human mGlu5a receptor (Homo sapiens (Human), UniProt P41594); test: Intracellular Ca2+ mobilization assay (mGlu5 PAM); format: cell-based; settings: maximal response in % of the maximal stimulatory effect obtained with saturating concentrations of L-glutamate; read-out: Eff. (%)
Sequence (P41594 other isoform, or with tags, fused parts or gaps): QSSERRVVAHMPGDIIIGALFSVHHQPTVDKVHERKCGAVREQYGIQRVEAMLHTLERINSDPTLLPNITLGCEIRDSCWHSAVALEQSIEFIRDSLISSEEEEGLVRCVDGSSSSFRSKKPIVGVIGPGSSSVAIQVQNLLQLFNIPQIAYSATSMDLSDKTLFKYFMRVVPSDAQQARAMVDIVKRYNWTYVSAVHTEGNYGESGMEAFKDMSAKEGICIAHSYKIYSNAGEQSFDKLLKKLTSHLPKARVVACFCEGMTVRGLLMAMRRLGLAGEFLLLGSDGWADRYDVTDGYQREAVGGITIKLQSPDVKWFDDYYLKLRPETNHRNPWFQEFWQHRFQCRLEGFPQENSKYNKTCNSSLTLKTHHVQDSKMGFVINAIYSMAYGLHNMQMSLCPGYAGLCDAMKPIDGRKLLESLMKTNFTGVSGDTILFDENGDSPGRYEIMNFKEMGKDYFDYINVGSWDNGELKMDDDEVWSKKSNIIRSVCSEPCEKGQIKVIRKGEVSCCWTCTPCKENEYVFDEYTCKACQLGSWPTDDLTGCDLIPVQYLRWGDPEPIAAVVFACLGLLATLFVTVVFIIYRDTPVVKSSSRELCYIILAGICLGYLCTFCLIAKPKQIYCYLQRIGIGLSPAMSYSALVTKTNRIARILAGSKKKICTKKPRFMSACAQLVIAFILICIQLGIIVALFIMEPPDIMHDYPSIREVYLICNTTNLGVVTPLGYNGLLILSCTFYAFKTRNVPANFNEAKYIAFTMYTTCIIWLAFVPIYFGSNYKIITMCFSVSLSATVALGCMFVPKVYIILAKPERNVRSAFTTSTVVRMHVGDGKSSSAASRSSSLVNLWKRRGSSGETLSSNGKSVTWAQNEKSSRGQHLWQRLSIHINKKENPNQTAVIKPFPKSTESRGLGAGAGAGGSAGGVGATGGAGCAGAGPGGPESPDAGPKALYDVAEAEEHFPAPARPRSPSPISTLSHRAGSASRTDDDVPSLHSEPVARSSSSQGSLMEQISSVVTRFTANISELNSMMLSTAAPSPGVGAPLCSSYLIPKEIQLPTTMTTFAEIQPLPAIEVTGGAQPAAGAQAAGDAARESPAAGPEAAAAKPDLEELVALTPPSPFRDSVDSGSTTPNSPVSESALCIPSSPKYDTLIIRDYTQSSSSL
observed_property: Emax (%)

> print(dat)
                                   compound  test.result
1  CN1C(=O)N(c2ncc(C#Cc3cc(F)ccc3F)cn2)CC1(C)C [Example 124]           43
2  CCN1C(=O)N(c2ccc(C#Cc3cccnc3)cn2)C2CCCCC21 (stereo not drawn) [Example 100]           64
3  CC1(C)CN(c2ccc(C#Cc3ccccc3)cn2)C1=O [Example 97]           71
4  COC[C@H]1CN(c2ccc(C#Cc3ccccc3)cn2)C(=O)O1 (single isomer, unassigned) [Example 3]           46
5  CN1C(=O)N(c2cnc(C#Cc3cccc(F)c3)cn2)CC1(C)C [Example 158]           36
6  CC1(C)CC(=O)N(c2ncc(C#Cc3ccc(F)cc3)cn2)C1 [Example 120]           81
7  CC1(C)CCN(c2ccc(C#Cc3cccnc3)cn2)C(=O)O1 [Example 73]           98
8  CN1C(=O)N(c2ccc(C#Cc3ccc(F)cc3)cn2)CCC1(C)C [Example 69]          107
9  Cn1cc(C#Cc2ccc(N3CC(C)(C)OC3=O)nc2)cn1 [Example 31]           55

###

target: human mGlu5a receptor (Homo sapiens (Human), UniProt P41594); assay: Intracellular Ca2+ mobilization assay (mGlu5 PAM); type: cell-based; conditions: maximal response in % of the maximal stimulatory effect obtained with saturating concentrations of L-glutamate; read-out: Eff. (%)
Values of Emax greater than or equal to 80% map to TRUE; values below map to FALSE.

> print(dat)
                                   compound  label.class
1  O=C1O[C@H]2CCC[C@H]2N1c1ccc(C#Cc2cccnc2)cn1 (racemic)         TRUE
2  CN1C(=O)N(c2ccc(C#Cc3cncc(F)c3)cn2)C2CCCCC21 (stereo not drawn)        FALSE
3  CC1(C)CCN(c2cnc(C#Cc3cccc(F)c3)cn2)C(=O)C1        FALSE
4  CC1(C)CN(c2ccc(C#Cc3ccc(F)cc3)cn2)C(=O)O1        FALSE
5   CC1(C)CCN(c2cnc(C#Cc3ccccc3)cn2)C(=O)N1         TRUE
6  CCN1C(=O)N(c2ncc(C#Cc3ccc(F)cc3)cn2)CC1(C)C        FALSE
7      O=C1OC2(CC2)CN1c1ccc(C#Cc2ccccc2)cn1         TRUE

###

molecular target: human mGlu5a receptor (Homo sapiens (Human)); experiment: Intracellular Ca2+ mobilization assay (mGlu5 PAM); format: cell-based; settings: maximal response in % of the maximal stimulatory effect obtained with saturating concentrations of L-glutamate; read-out: Eff. (%)
// reported Emax per item
observed_property: Emax (%)

> print(dat)
                                    compound  readout.unit  test.result
 1  O=C1O[C@H]2CCC[C@@H]2CN1c1ccc(C#Cc2ccccc2)cn1 (racemic)             %          115
 2  CO[C@H]1C(=O)N(c2ncc(C#Cc3cccc(F)c3)cn2)CC1(C)C (single isomer, unassigned)             %           69
 3  COCC1CCN(c2ccc(C#Cc3ccccc3)cn2)C(=O)O1 (racemic)             %           51
 4   CC1(C)CNC(=O)N(c2ccc(C#Cc3ccccc3)cn2)C1             %          148
 5  CC(C)(C)C1CN(c2ccc(C#Cc3ccccc3)cn2)C(=O)O1 (racemic)             %           62
 6  CN1C(=O)N(c2cnc(C#Cc3cccc(F)c3)cn2)CCC1(C)C             %           54
 7    CC1(C)CC(=O)N(c2ccc(C#Cc3ccccc3)nn2)C1             %          113
 8    O=C1CC2(CCCC2)CN1c1ccc(C#Cc2ccccc2)cn1             %           81
 9   CN1C(=O)N(c2cnc(C#Cc3cccnc3)cn2)CC1(C)C             %           34
10  CN1C(=O)N(c2ccc(C#Cc3cccc(Cl)c3)nn2)CC1(C)C             %           95
11  CC1(C)CN(c2ccc(C#Cc3cccc(F)c3)cn2)C(=O)O1             %           46
12  Cc1cc(C#Cc2cccc(F)c2)cnc1N1CC(C)(C)N(C)C1=O             %          115
13  CC1(C)CCN(c2ncc(C#Cc3cccc(F)c3)cn2)C(=O)C1             %           47
14  CO[C@@H]1C(=O)N(c2ncc(C#Cc3cccc(F)c3)cn2)CC1(C)C (single isomer, unassigned)             %           48
15  CN1C(=O)N(c2ccc(C#Cc3ccccc3)cn2)CC1C1CC1 (racemic)             %           86
16  CC1(C)CCN(c2ccc(C#Cc3cncc(F)c3)cn2)C(=O)O1             %          108
17  CC1CN(c2ccc(C#Cc3ccccc3)cn2)C(=O)CO1 (racemic)             %           73
18   CN1C(=O)N(c2cnc(C#Cc3ccccc3)cn2)CC1(C)C             %           58

###

molecular target: human mGlu5a receptor (Homo sapiens (Human), UniProt P41594); experiment: Intracellular Ca2+ mobilization assay (mGlu5 PAM); assay type: cell-based; conditions: HEK-293 cells stably transfected with human mGlu5a; L-glutamate added at EC20 after pre-incubation with test compound; read-out: EC50 (nM) mGlu5PAM
observed_property: EC50 (nM)

> print(dat)
                               query.smiles                           measured.target  test.result
1    CC1(C)CN(c2ccc(C#Cc3cncnc3)cn2)C(=O)O1  human mGlu5a receptor (Homo sapiens (Human), UniProt P41594)           80
2  Cc1cccc(C#Cc2ccc(N3CC(C)(C)N(C)C3=O)nn2)c1  human mGlu5a receptor (Homo sapiens (Human), UniProt P41594)           61
3  CN1C(=O)N(c2ccc(C#Cc3cncc(Cl)c3)cn2)CC1(C)C  human mGlu5a receptor (Homo sapiens (Human), UniProt P41594)           29
4  CC1(C)CC(=O)N(c2ccc(C#Cc3cncc(F)c3)cn2)C1  human mGlu5a receptor (Homo sapiens (Human), UniProt P41594)           22
5  CC1(C)CCN(c2cnc(C#Cc3cccc(F)c3)cn2)C(=O)C1  human mGlu5a receptor (Homo sapiens (Human), UniProt P41594)           29

###

target: human mGlu5a receptor (Homo sapiens (Human), UniProt P41594); test: Intracellular Ca2+ mobilization assay (mGlu5 PAM); assay type: cell-based; conditions: HEK-293 cells stably transfected with human mGlu5a; L-glutamate added at EC20 after pre-incubation with test compound; read-out: EC50 (nM) mGlu5PAM
observed_property: EC50 (nM)

> print(dat)
                                   compound  observed.property  test.result
1  COC1C(=O)N(c2ccc(C#Cc3cccc(F)c3)cn2)CC1(C)C (racemic) [Example 65]               EC50           43
2  COC[C@H]1CN(c2ccc(C#Cc3ccccc3)cn2)C(=O)O1 (single isomer, unassigned) [Example 3]               EC50           18
3  CO[C@@H]1C(=O)N(c2ncc(C#Cc3ccccc3)cn2)CC1(C)C (single isomer, unassigned) [Example 128]               EC50           46
4  CN1C(=O)N(c2ccc(C#Cc3ccccc3)cn2)CC1C1CCCC1 (racemic) [Example 45]               EC50           57
5  CC1(C)CCN(c2ccc(C#Cc3cccnc3)cn2)C(=O)O1 [Example 73]               EC50           59
6  CN1C(=O)N(c2ccc(C#Cc3ccccc3)nn2)[C@@H]2CCC[C@@H]21 (racemic) [Example 170]               EC50           13
7  O=C1CC2(COC2)CN1c1ccc(C#Cc2ccccc2)cn1 [Example 82]               EC50           57
8  CC1(C)CCN(c2ncc(C#Cc3ccccc3)cn2)C(=O)C1 [Example 134]               EC50           42
